Recorded remaining at 2 h, 1 µM values for a group of molecules are listed next.
tested on: Pancreatin; test: Protease stability in simulated intestinal fluid (Pancreatin-SIF, FaSSIF); format: in vitro ADME; conditions: 120 min, 1 μM peptide, 37° C., read-out: FaSSIF 120 (min), remaining percent of peptide
Positions of bridges follow the written chain, without caps; N, C: chain ends. Non-standard residues stand in square brackets, D forms with d. Residues, ends and D or L forms follow the SMILES beside them. *: point of attachment. Trp(7-Me) = Cc1cccc2c(C[C@H](N)C(=O)O)c[nH]c12; αMeLys(Me2) = CN(C)CCCC[C@](C)(N)C(=O)O; 2Nal = N[C@@H](Cc1ccc2ccccc2c1)C(=O)O; Thp = NC1(C(=O)O)CCOCC1; Me2NCH2CH2 = CN(C)CC*; Ava = NCCCCC(=O)O; βAla = NCCC(=O)O
Give your result in % as a bare value.

CC(=O)NCCCC[C@@H]1NC(=O)[C@H](Cc2c[nH]c3c(C)cccc23)NC(=O)[C@H]([C@@H](C)O)NC(=O)[C@H](CC(N)=O)NC(=O)[C@@H]2CSSC[C@H](NC1=O)C(=O)N[C@@H](Cc1ccc(OCCN(C)C)cc1)C(=O)N[C@@H](Cc1ccc3ccccc3c1)C(=O)NC1(CCOCC1)C(=O)N[C@H](C(=O)N[C@@H](CC(N)=O)C(=O)N[C@@H](Cc1c[nH]cn1)C(=O)NCCC(N)=O)CCC(=O)NCCCCC(=O)N2 [compound 49] ([Ava]CNT[Trp(7-Me)]K(Ac)CY(Me2NCH2CH2)[2Nal][Thp]ENH[βAla]-NH2; disulfide 2-7; lactam N-11) | 75

Note down remaining at 2 h, 1 µM recorded for CC(=O)NCCCC[C@@H]1NC(=O)[C@H](Cc2c[nH]c3c(C)cccc23)NC(=O)[C@H]([C@@H](C)O)NC(=O)[C@H](CC(N)=O)NC(=O)[C@@H]2CSSC[C@H](NC1=O)C(=O)N[C@@H](Cc1ccc(OCCN(C)C)cc1)C(=O)N[C@@H](Cc1ccc3ccccc3c1)C(=O)N[C@@](C)(CCCCN(C)C)C(=O)N[C@H](C(=O)N[C@@H](CC(N)=O)C(=O)N[C@H](CC(C)C)C(N)=O)CCC(=O)NCCCCC(=O)N2 [compound 54] ([Ava]CNT[Trp(7-Me)]K(Ac)CY(Me2NCH2CH2)[2Nal][αMeLys(Me2)]EN[dL]-NH2; disulfide 2-7; lactam N-11)
100

----------
Catalogue of remaining at 2 h, 1 µM readings, one per entry.
Tested on: Pancreatin
Test: Protease stability in simulated intestinal fluid (Pancreatin-SIF, FaSSIF)
Format: in vitro ADME
Details: 120 min, 1 μM peptide, 37° C., read-out: FaSSIF 120 (min), remaining percent of peptide
Description: Studies were carried out in simulated intestinal fluid (SIF) and simulated gastric fluid (SGF) to evaluate gastric stability of the peptide compounds disclosed herein. […] To 76 μL of the Pepsin-SGF buffer, 4 μL of the 20 µM peptide stock solution was added and incubated at 37° C. […] The samples were centrifuged for 20 minutes and an aliquot of the supernatant 100 μL were transferred to a LoBind-MTP plate and analyzed by LCMS/MS. […]
Starred links: 1 amine or outer side, 2 acyl side, 3 side chain; linkers in the order of their positions; H or OH if unused. Positions of bridges follow the written chain, without caps; N, C: chain ends. Non-standard residues stand in square brackets, D forms with d. Residues, ends and D or L forms follow the SMILES beside them. *: point of attachment. X1 = O=C(CCCCN[*:3])N[C@@H](CS[*:2])C(=O)[*:1]; Trp(1-Me) = Cn1cc(C[C@H](N)C(=O)O)c2ccccc21; 2Nal = N[C@@H](Cc1ccc2ccccc2c1)C(=O)O; 3Pal = N[C@@H](Cc1cccnc1)C(=O)O; Thp = NC1(C(=O)O)CCOCC1; Me2NCH2CH2 = CN(C)CC*; Aib = CC(C)(N)C(=O)O; Ava = NCCCCC(=O)O; Sar = CNCC(=O)O
Respond with the bare value in %.

Some solved entries appear below for comparison.
CC(=O)NCCCC[C@@H]1NC(=O)[C@H](Cc2cn(C)c3ccccc23)NC(=O)[C@@H](NC(C)=O)CCCCNC(=O)[C@@H]2CSSC[C@H](NC1=O)C(=O)N[C@@H](Cc1ccc(OCCN(C)C)cc1)C(=O)N[C@@H](Cc1ccc3ccccc3c1)C(=O)NC1(CCOCC1)C(=O)N[C@H](C(=O)N[C@@H](CC(N)=O)C(=O)N[C@@H](Cc1cccnc1)C(=O)N(C)CC(N)=O)CCC(=O)NCCCCC(=O)N2 [compound 126] (Ac-K[Trp(1-Me)]K(Ac)CY(Me2NCH2CH2)[2Nal][Thp]EN[3Pal][Sar]-NH2; linker 1-4-8 via X1) | 87
COc1ccc(C[C@@H]2NC(=O)[C@@H]3CSSC[C@H](NC(=O)CCCCNC(=O)CC[C@@H](C(=O)N[C@@H](CC(N)=O)C(=O)NCC(N)=O)NC(=O)C(C)(C)NC(=O)[C@H](Cc4ccc5ccccc5c4)NC2=O)C(=O)N[C@@H](CC(N)=O)C(=O)N[C@@H]([C@@H](C)O)C(=O)N[C@@H](Cc2c[nH]c4ccccc24)C(=O)N[C@@H](CCC(N)=O)C(=O)N3)cc1 [compound 4] ([Ava]CNTWQCY(Me)[2Nal][Aib]ENG-NH2; disulfide 2-7; lactam N-11) | 82
CC(=O)N[C@H]1CCCCNC(=O)[C@@H]2CSSC[C@H](NC(=O)[C@H](CCC(N)=O)NC(=O)[C@H](Cc3c[nH]c4ccccc34)NC1=O)C(=O)N[C@@H](Cc1ccc(OCCN(C)C)cc1)C(=O)N[C@@H](Cc1ccc3ccccc3c1)C(=O)NC1(CCOCC1)C(=O)N[C@H](C(=O)N[C@@H](C)C(=O)N[C@H](CC(C)C)C(N)=O)CCC(=O)NCCCCC(=O)N2 [compound 33] (Ac-KWQCY(Me2NCH2CH2)[2Nal][Thp]EA[dL]-NH2; linker 1-4-8 via X1) | 100

Please find the next compound below.
Tell me measured remaining at 2 h, 1 µM for CC[C@H](C)[C@H](NC(=O)[C@H](CC(N)=O)NC(=O)[C@H](CC(N)=O)NC(=O)[C@@H]1CCC(=O)NCCCCC(=O)N[C@H]2CSSC[C@H](NC(=O)[C@H](CCCCNC(C)=O)NC(=O)[C@H](Cc3c[nH]c4ccccc34)NC(=O)[C@H]([C@@H](C)O)NC(=O)[C@H](CC(N)=O)NC2=O)C(=O)N[C@@H](Cc2ccc(OCCN(C)C)cc2)C(=O)N[C@@H](Cc2ccc3ccccc3c2)C(=O)NC(C)(C)C(=O)N1)C(N)=O [compound 38] ([Ava]CNTWK(Ac)CY(Me2NCH2CH2)[2Nal][Aib]ENNI-NH2; disulfide 2-7; lactam N-11) please.
96

Value source: patent US20260258084A1
